Recorded CMK %inh, one value per entry.
System: CMK
Set-up: species or system AML cell lines (8); Primary HTS, single concentration about 10 uM, Cell Titer Glo viability; log10 luminescence, per cent inhibition relative to cycloheximide control
Details: 72 h, relative to cycloheximide control, log10 luminescence; inhibitor
Give the value in % but do not write % after it.

// worked examples, CMK %inh included
> print(dat)
                                   molecule  value.units  readout.value
1  Cc1cn([C@@H]2C[C@@H](O)[C@H](CO)O2)c(=O)[nH]c1=O            %         -3.078
2  CC(C)Nc1ncc2cc(Oc3ccc(F)cc3F)c(=O)n(C)c2n1            %           7.64
3  NC(=O)c1sc(-n2cnc3ccccc32)cc1OCc1ccccc1Br            %          4.627
4  COc1cc(C(C)C)c2c(c1)S(=O)(=O)N(COc1cc(=O)n3cccc(OCCN4CCCCC4)c3n1)C2=O            %          0.212
5  Cc1c(C2=C(c3cn(C)c4ccccc34)C(=O)NC2=O)c2ccccc2n1C            %          42.24

Query: Name the recorded CMK %inh for Nc1c(C(=O)c2cccc(-c3ccncc3)c2)cnn1-c1ccc(F)cc1F .
Result: 75.1
